B1: FEM1B (parent)
chain: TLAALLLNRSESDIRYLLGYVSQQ

Variants of: B1
Experiment Summary: protein stability index of a GFP-peptide fusion (GPS, HEK-293T) (PSI 1-6); higher = more stable;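 further: lentivirally expressed fusions sorted by FACS into six bins by GFP to DsRed ratio, PSI derived from sequencing read proportions per bin multiplied by bin number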
Assay Setup: c terminus: a fixed tail appended
Assign class by protein stability index: not lower than 2 means y; lower than 2 means n.

>  <Variant Code>
S22W

>  <Class Label>
y

$$$$
>  <Variant Code>
V21S

>  <Class Label>
y

$$$$
>  <Variant Code>
Q24M

>  <Class Label>
n

$$$$
>  <Variant Code>
E11C

>  <Class Label>
y

$$$$
>  <Variant Code>
D13P

>  <Class Label>
y

$$$$
>  <Variant Code>
L2K

>  <Class Label>
n

$$$$
>  <Variant Code>
L5W

>  <Class Label>
y

$$$$
>  <Variant Code>
T1S

>  <Class Label>
y

$$$$
>  <Variant Code>
S10P

>  <Class Label>
y

$$$$
>  <Variant Code>
Y20E

>  <Class Label>
y

$$$$
>  <Variant Code>
Y16K

>  <Class Label>
y

$$$$
>  <Variant Code>
S12H

>  <Class Label>
y

$$$$
>  <Variant Code>
S10M

>  <Class Label>
n

$$$$
>  <Variant Code>
L6Q

>  <Class Label>
n

$$$$
>  <Variant Code>
L2Q

>  <Class Label>
y

$$$$
>  <Variant Code>
S10W

>  <Class Label>
y

$$$$
>  <Variant Code>
Y20L

>  <Class Label>
y

$$$$
>  <Variant Code>
S12I

>  <Class Label>
y

$$$$
>  <Variant Code>
I14S

>  <Class Label>
y

$$$$
>  <Variant Code>
L7E

>  <Class Label>
n

$$$$
>  <Variant Code>
Y20P

>  <Class Label>
y

$$$$
>  <Variant Code>
T1M

>  <Class Label>
y

$$$$
>  <Variant Code>
S22A

>  <Class Label>
y

$$$$
>  <Variant Code>
L18I

>  <Class Label>
y

$$$$
>  <Variant Code>
L17W

>  <Class Label>
y

$$$$
>  <Variant Code>
D13S

>  <Class Label>
y

$$$$
>  <Variant Code>
E11Y

>  <Class Label>
y

$$$$
>  <Variant Code>
L6K

>  <Class Label>
y

$$$$
>  <Variant Code>
Y20I

>  <Class Label>
y

$$$$
>  <Variant Code>
S10Q

>  <Class Label>
y

$$$$
>  <Variant Code>
L5H

>  <Class Label>
y

$$$$
>  <Variant Code>
Q24H

>  <Class Label>
y

$$$$
>  <Variant Code>
Q24I

>  <Class Label>
y

$$$$
>  <Variant Code>
Y16P

>  <Class Label>
y

$$$$
>  <Variant Code>
T1N

>  <Class Label>
y

$$$$
>  <Variant Code>
E11D

>  <Class Label>
y

$$$$
>  <Variant Code>
G19R

>  <Class Label>
y

$$$$
>  <Variant Code>
T1E

>  <Class Label>
y

$$$$
>  <Variant Code>
D13F

>  <Class Label>
n

$$$$
>  <Variant Code>
Y16I

>  <Class Label>
n

$$$$
>  <Variant Code>
L5F

>  <Class Label>
y

$$$$
>  <Variant Code>
A3E

>  <Class Label>
y

$$$$
>  <Variant Code>
L2Y

>  <Class Label>
y

$$$$
>  <Variant Code>
A3L

>  <Class Label>
y

$$$$
>  <Variant Code>
L7M

>  <Class Label>
y

$$$$
>  <Variant Code>
L2A

>  <Class Label>
n

$$$$
>  <Variant Code>
R9Y

>  <Class Label>
y

$$$$
>  <Variant Code>
A4S

>  <Class Label>
y

$$$$
>  <Variant Code>
R15C

>  <Class Label>
y

$$$$
>  <Variant Code>
L5S

>  <Class Label>
y

$$$$
>  <Variant Code>
E11S

>  <Class Label>
y

$$$$
>  <Variant Code>
N8F

>  <Class Label>
y

$$$$
>  <Variant Code>
L5M

>  <Class Label>
y

$$$$
>  <Variant Code>
L5G

>  <Class Label>
n

$$$$
>  <Variant Code>
S12K

>  <Class Label>
y

$$$$
>  <Variant Code>
S22I

>  <Class Label>
y

$$$$
>  <Variant Code>
G19A

>  <Class Label>
y

$$$$
>  <Variant Code>
I14F

>  <Class Label>
y

$$$$
>  <Variant Code>
A4Y

>  <Class Label>
y

$$$$
>  <Variant Code>
L6N

>  <Class Label>
n

$$$$
>  <Variant Code>
Y16N

>  <Class Label>
y

$$$$
>  <Variant Code>
L18M

>  <Class Label>
n

$$$$
>  <Variant Code>
N8K

>  <Class Label>
y

$$$$
>  <Variant Code>
T1I

>  <Class Label>
y

$$$$
>  <Variant Code>
I14R

>  <Class Label>
y

$$$$
>  <Variant Code>
L6F

>  <Class Label>
y

$$$$
>  <Variant Code>
S22N

>  <Class Label>
n

$$$$
>  <Variant Code>
L6M

>  <Class Label>
y

$$$$
>  <Variant Code>
L18Y

>  <Class Label>
y

$$$$
>  <Variant Code>
V21A

>  <Class Label>
y

$$$$
>  <Variant Code>
R15Y

>  <Class Label>
y

$$$$
>  <Variant Code>
S12A

>  <Class Label>
y

$$$$
>  <Variant Code>
G19M

>  <Class Label>
y

$$$$
>  <Variant Code>
D13K

>  <Class Label>
y

$$$$
>  <Variant Code>
Y16S

>  <Class Label>
n

$$$$
>  <Variant Code>
L5Q

>  <Class Label>
y

$$$$
>  <Variant Code>
Q24V

>  <Class Label>
n

$$$$
>  <Variant Code>
I14E

>  <Class Label>
y

$$$$
>  <Variant Code>
Y20V

>  <Class Label>
y

$$$$
>  <Variant Code>
R9D

>  <Class Label>
y

$$$$
>  <Variant Code>
T1Y

>  <Class Label>
y

$$$$
>  <Variant Code>
S22C

>  <Class Label>
y

$$$$
>  <Variant Code>
D13W

>  <Class Label>
y

$$$$
>  <Variant Code>
L2W

>  <Class Label>
y

$$$$
>  <Variant Code>
E11W

>  <Class Label>
y

$$$$
>  <Variant Code>
I14V

>  <Class Label>
y

$$$$
>  <Variant Code>
I14Y

>  <Class Label>
y

$$$$
